Assay: Biodistribution after day 6 in mouse muscle
Assay type: ADME, organism-based, Muscle tissue
reported metric: concentration at 6 day

These recorded examples may help you get a feel for the data.
{"compound": "CCC1=C(CC)c2cc3[nH]c(cc4[nH]c(c(C)c4CC)c4[nH]c(cc5nc(cc1n2)C(CCC(=O)NCCOCCOCCN)=C5C)c(CC)c4C)c(C)c3CCC(=O)NCCOCCOCCN", "concentration at 6 day": "45000 ng/g"}
{"compound": "CCc1c(CC)c2cc3nc(cc4[nH]c(c(C)c4CC)c4[nH]c(cc5nc(cc1[nH]2)C(CCC(=O)NC1C(O)OC(CO)C(O)C1O)=C5C)c(CC)c4C)C(C)=C3CCC(=O)NC1C(O)OC(CO)C(O)C1O (stereo unspecified)", "concentration at 6 day": "17000 ng/g"}
{"compound": "CCc1c(CC)c2cc3nc(cc4[nH]c(c(C)c4CC)c4[nH]c(cc5nc(cc1[nH]2)C(CCC(=O)NCCN(CCN)CCN)=C5C)c(CC)c4C)C(C)=C3CCC(=O)NCCN(CCN)CCN", "concentration at 6 day": "22000 ng/g"}
{"compound": "C=CC1=C(C)c2cc3nc(cc4[nH]c(cc5[nH]c(cc1n2)c(C)c5CCC(=O)NC1C(O)OC(CO)C(O)C1O)c(CCC(=O)NC1C(O)OC(CO)C(O)C1O)c4C)C(C=C)=C3C (stereo unspecified) [PORPHYRIN]", "concentration at 6 day": "5100 ng/g"}
{"compound": "CCc1c(CC)c2cc3nc(cc4[nH]c(c(C)c4CC)c4[nH]c(cc5nc(cc1[nH]2)C(CCC(=O)N(CCO)CCO)=C5C)c(CC)c4C)C(C)=C3CCC(=O)N(CCO)CCO [SAPPHYRIN]", "concentration at 6 day": "710 ng/g"}

Now look at this entry.
Per the record, "CCc1c(CC)c2cc3nc(cc4[nH]c(c(C)c4CC)c4[nH]c(cc5nc(cc1[nH]2)C(CCC(=O)NCCOCCOCCO)=C5C)c(CC)c4C)C(C)=C3CCC(=O)NCCOCCOCCO" has concentration at 6 day of 3400 ng/g
